test system: cancer cell lines classified IM, MSL, M; assay: PRISM screen compound sensitivity correlated with IM, MSL and M subtype of cell lines (101 gene signature); type: cell-based; details: correlation of PRISM compound sensitivity with M subtype correlation; test cell set (188 cell lines)
endpoint_label: M Corr test

compound | endpoint_label | experimental_result
O=C(NCCCN1CCCCCC1)C(c1ccccc1)C1CCCCC1 (stereo not shown) [MR-16728] | M Corr test | 0.0251
C/C(=N\NC(=O)[C@H]1C(=O)NC[C@@H]1c1ccccc1)c1cccc(Br)c1 [AC-264613] | M Corr test | 0.0938
C[N+](C)(C)CC#CCN1CCCC1=O [oxotremorine-m] | M Corr test | 0.05992
CC(C)(CCCCCCCCCCC(C)(C)CC(=O)O)CC(=O)O [medica-16] | M Corr test | 0.01613
Cc1cc(Nc2nc(N[C@@H](C)c3ccc(F)cc3)c(C#N)cc2F)n[nH]1 [AZ960] | M Corr test | 0.008122
COc1cc2c(NC3CCN(CC4CCCCC4)CC3)nc(N3CCCN(C(C)C)CC3)nc2cc1OCCCN1CCCCC1 [UNC0631] | M Corr test | −0.3256
COc1cc2ncnc(Nc3ccc(O)c(Br)c3)c2cc1OC [WHI-P154] | M Corr test | 0.2466
O=Nc1ccc(O)c2ncccc12 [NSC-3852] | M Corr test | −0.1666
c1cc2c(cc1C1CCCCC1)c1c3n2CCNC3CCC1 (stereo not shown) [tetrindole] | M Corr test | 0.06046
CC(C)C(=O)c1ccc(O)c(O)c1 [U-0521] | M Corr test | 0.02749

* * *

test system: cancer cell lines, DetermaIO classes; assay: Association of PRISM compound sensitivity with DetermaIO (DTIO) cell line classes; type: cell-based; settings: correlation of PRISM compound sensitivity with DTIO; training cell set
// assign MET if DTIO Corr train falls strictly below -0.08, else NOT MET (ties count as NOT MET)

molecule | assayed_target | label_value
C=CCn1c(=O)c2cnc(Nc3ccc(N4CCN(C)CC4)cc3)nc2n1-c1cccc(C(C)(C)O)n1 | cancer cell lines, DetermaIO classes | MET
COc1ccc(/C=C/CCCCOc2ccc(C(=O)c3cccc(C(=O)O)c3)cc2CCC(=O)O)cc1 | cancer cell lines, DetermaIO classes | NOT MET
O=C(NCc1ccccc1)c1csc(Nc2ccncn2)n1 | cancer cell lines, DetermaIO classes | NOT MET
C[C@@H](Oc1cc(NS(=O)(=O)N2CCC2)nc(SCc2cccc(F)c2F)n1)[C@@H](O)CO | cancer cell lines, DetermaIO classes | MET
CC(=O)Nc1ccc(Cc2ccc(NC(C)=O)cc2)cc1 | cancer cell lines, DetermaIO classes | MET
CN1C(=O)C(N2CCCCC2)S/C1=C\C(=O)O (stereo not shown) | cancer cell lines, DetermaIO classes | NOT MET
Cc1ccc(NC(=O)c2cccc(C(C)(C)C#N)c2)cc1Nc1ccc2ncn(C)c(=O)c2c1 | cancer cell lines, DetermaIO classes | NOT MET
Cl.NC1CCN(c2cccc(Cl)n2)CC1 [SR-57227A] | cancer cell lines, DetermaIO classes | MET
COc1ccc(C2=N[C@@H](c3ccc(Cl)cc3)[C@@H](c3ccc(Cl)cc3)N2C(=O)N2CCNC(=O)C2)c(OC(C)C)c1 | cancer cell lines, DetermaIO classes | NOT MET
